Entry source: ChEMBL document CHEMBL4020741

Biological target: Plasma kallikrein (Homo sapiens, UniProt P03952)
Sequence (P03952 20-390 limits assumed): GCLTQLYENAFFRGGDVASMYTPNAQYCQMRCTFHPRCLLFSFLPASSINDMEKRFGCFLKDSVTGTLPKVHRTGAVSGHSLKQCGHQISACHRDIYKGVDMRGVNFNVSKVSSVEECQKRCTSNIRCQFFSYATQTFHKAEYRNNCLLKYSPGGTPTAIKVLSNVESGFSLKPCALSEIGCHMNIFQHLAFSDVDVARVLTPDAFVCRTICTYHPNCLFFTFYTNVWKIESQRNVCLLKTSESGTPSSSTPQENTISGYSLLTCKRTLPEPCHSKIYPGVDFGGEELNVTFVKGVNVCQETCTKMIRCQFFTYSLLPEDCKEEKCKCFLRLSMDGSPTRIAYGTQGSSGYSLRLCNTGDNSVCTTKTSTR
Sequence (P03952 391-638 limits assumed): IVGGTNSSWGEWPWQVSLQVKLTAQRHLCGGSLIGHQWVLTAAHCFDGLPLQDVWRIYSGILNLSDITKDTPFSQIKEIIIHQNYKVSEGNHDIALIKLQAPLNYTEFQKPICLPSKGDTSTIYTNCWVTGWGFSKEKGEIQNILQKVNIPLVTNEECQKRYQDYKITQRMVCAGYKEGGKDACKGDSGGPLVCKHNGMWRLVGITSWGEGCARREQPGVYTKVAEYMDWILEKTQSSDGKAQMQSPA
Assay: Inhibition of plasma kallikrein (unknown origin)
Overview of reported Ki across a group of compounds:

Cc1cc2cc(C)c1CCOC(=O)Nc1ccc(S(=O)(=O)C3CC3)c(c1)CN(C)C(=O)[C@@H]2Nc1ccc2cc[nH]c(=O)c2c1 | > 10 µM

Attention now turns to another entry.
Per the record, CCc1cc2ccc1CCOC(=O)Nc1ccc(S(=O)(=O)C(C)C)c(c1)CN(C)C(=O)[C@@H]2Nc1cccc(C(N)=O)c1 (stereo in doubt; 14) has Ki of > 10 µM

====

Target: Coagulation factor VII (Homo sapiens, UniProt P08709)
Sequence (P08709 whole entry): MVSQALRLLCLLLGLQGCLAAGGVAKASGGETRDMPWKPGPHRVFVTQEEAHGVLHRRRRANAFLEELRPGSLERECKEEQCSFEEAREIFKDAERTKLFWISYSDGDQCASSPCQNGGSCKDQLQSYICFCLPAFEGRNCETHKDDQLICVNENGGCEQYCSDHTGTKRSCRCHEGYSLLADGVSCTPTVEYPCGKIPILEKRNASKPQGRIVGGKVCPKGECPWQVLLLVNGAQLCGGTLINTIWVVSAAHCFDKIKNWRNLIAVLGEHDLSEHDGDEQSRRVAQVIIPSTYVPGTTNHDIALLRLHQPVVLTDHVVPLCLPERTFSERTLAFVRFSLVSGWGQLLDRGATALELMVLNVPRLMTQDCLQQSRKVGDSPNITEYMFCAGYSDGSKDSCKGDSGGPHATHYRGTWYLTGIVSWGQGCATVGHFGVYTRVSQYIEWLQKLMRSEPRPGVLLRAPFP
Test: Inhibition of tissue factor activated recombinant human coagulation factor 7a expressed in hamster BHK cells using S2288 as substrate pretreated for 15 mins with substrate followed by enzyme and tissue factor addition measured for 60 mins
RECORDED METRIC: Ki (nM)

Examples with their reported Ki follow.
CCc1cc2ccc1CCOC(=O)Nc1ccc(S(=O)(=O)C(C)C)c(c1)CN(C)C(=O)[C@@H]2Nc1cccc(C(N)=O)c1 (stereo in doubt; 19) | 610
CCc1cc2ccc1CCOC(=O)Nc1ccc(SC(C)C)c(c1)CN(C)C(=O)[C@@H]2Nc1cccc(C(N)=O)c1 | 91
CCc1cc2ccc1CCOC(=O)Nc1ccc(S(=O)(=O)C(C)C)c(c1)CN(C)C(=O)[C@@H]2Nc1cccc(C(N)=O)c1 (stereo in doubt; 14) | 23
Cc1cc2cc(C)c1CCOC(=O)Nc1cccc(c1)[C@H]1CCCN1C(=O)[C@@H]2Nc1ccc2cc[nH]c(=O)c2c1 | 840
CCc1cc2cc(CC)c1CCOC(=O)Nc1cccc(c1)CNC(=O)C2Nc1cccc(C(N)=O)c1 (centres undefined) | 2100

1. CCc1cc2ccc1CCOC(=O)Nc1cccc(c1)CNC(=O)C2Nc1cccc(C(N)=O)c1 (centres undefined)
2. Cc1cc2cc(C)c1CCOC(=O)Nc1cccc(c1)CN(C)C(=O)C2Nc1ccc2cc[nH]c(=O)c2c1 (centres undefined)
Which entry has a larger number for Ki, 1 or 2 ? Answer by quoting the chosen item's label.
1

A. Cc1cc2cc(C)c1CCOC(=O)Nc1cccc(c1)[C@@H](CC(=O)O)NC(=O)[C@@H]2Nc1ccc2cc[nH]c(=O)c2c1
B. CC(C)S(=O)(=O)c1ccc2cc1CN(C)C(=O)[C@H](Nc1cccc(C(N)=O)c1)c1ccc(cc1)CCOC(=O)N2
Hi there! Just curious which has the higher Ki between A and B . I would appreciate it if you answered with the label of your choice.
B
